Reported IC50 values are given for each entry in this list.
- Tested on: SGC-7901
- assay: Cytotoxicity against human SGC7901 cells after 72 hrs by MTT assay
- Format: functional, cell-based
- experimental.parameters: SGC-7901, 72 h

{"compound.string": "CN1CCC(Nc2nc(N/N=C/c3nccn3Cc3cccc(Cl)c3Cl)nc3ccccc23)CC1", "IC50 [nM]": 580}
{"compound.string": "Cc1ccc(Cn2ccnc2/C=N/Nc2nc(NCCCN3CCOCC3)c3ccccc3n2)cc1", "IC50 [nM]": 3020}
{"compound.string": "CN1CCC(Nc2nc(N/N=C/c3ccc(Cl)cc3)nc3ccccc23)CC1", "IC50 [nM]": 1320}
{"compound.string": "CN(C)CCCNc1nc(N/N=C/c2nccn2Cc2ccc(F)cc2)nc2ccccc12", "IC50 [nM]": 3510}
{"compound.string": "CN(C)CCCNc1nc(N/N=C/c2ccc(F)cc2Cl)nc2ccccc12", "IC50 [nM]": 1660}

---

- Test system: HT-29
- assay: Cytotoxicity against human HT-29 cells after 72 hrs by MTT assay
- Assay type: functional, cell-based
- experimental.parameters: HT-29, 72 h

{"compound.string": "Cc1ccc(Cn2ccnc2/C=N/Nc2nc(NCCN(C)C)c3ccccc3n2)cc1", "IC50": "1.41 µM"}
{"compound.string": "CN(C)CCNc1nc(N/N=C/c2nccn2Cc2cccc(Cl)c2Cl)nc2ccccc12", "IC50": "0.26 µM"}
{"compound.string": "Oc1cccc(/C=N/Nc2nc(NCCCN3CCOCC3)c3ccccc3n2)c1", "IC50": "6.32 µM"}
{"compound.string": "CN(C)CCNc1nc(N/N=C/c2ccc(Cl)cc2)nc2ccccc12", "IC50": "0.21 µM"}
{"compound.string": "Cc1ccc(-c2cc(NCCN(C)C)c3ccccc3n2)cc1", "IC50": "1.35 µM"}
{"compound.string": "CN(C)CCNc1nc(N/N=C/c2ccc(F)cc2)nc2ccccc12", "IC50": "1.53 µM"}
{"compound.string": "CN1CCC(Nc2nc(N/N=C/c3nccn3Cc3ccc(F)cc3)nc3ccccc23)CC1", "IC50": "0.65 µM"}
{"compound.string": "CN(C)CCCNc1nc(N/N=C/c2ccc(F)cc2Cl)nc2ccccc12", "IC50": "1.15 µM"}
{"compound.string": "COc1ccc(OC)c(/C=N/Nc2nc(NC3CCN(C)CC3)c3ccccc3n2)c1", "IC50": "2.83 µM"}
{"compound.string": "CN(C)CCCNc1nc(N/N=C/c2nccn2Cc2ccccc2)nc2ccccc12", "IC50": "1.98 µM"}
{"compound.string": "CN1CCC(Nc2nc(N/N=C/c3ccc(F)cc3)nc3ccccc23)CC1", "IC50": "1.41 µM"}
{"compound.string": "C(=N\\Nc1nc(NCCCN2CCOCC2)c2ccccc2n1)/c1nccn1Cc1ccccc1", "IC50": "2.84 µM"}
{"compound.string": "Clc1cccc(Cn2ccnc2/C=N/Nc2nc(NCCCN3CCOCC3)c3ccccc3n2)c1Cl", "IC50": "0.72 µM"}
{"compound.string": "Cc1ccc(Cn2ccnc2/C=N/Nc2nc(NCCCN(C)C)c3ccccc3n2)cc1", "IC50": "2.44 µM"}
{"compound.string": "CN(C)CCNc1nc(N/N=C/c2nccn2Cc2ccc(F)cc2)nc2ccccc12", "IC50": "0.93 µM"}
{"compound.string": "CN(C)CCCNc1nc(N/N=C/c2ccc(Cl)cc2)nc2ccccc12", "IC50": "0.27 µM"}
{"compound.string": "CN1CCC(Nc2nc(N/N=C/c3ccc(Cl)cc3)nc3ccccc23)CC1", "IC50": "0.023 µM"}
{"compound.string": "Cc1ccc(Cn2ccnc2/C=N/Nc2nc(NCCCN3CCOCC3)c3ccccc3n2)cc1", "IC50": "3.16 µM"}
{"compound.string": "Fc1ccc(/C=N/Nc2nc(NCCCN3CCOCC3)c3ccccc3n2)cc1", "IC50": "2.19 µM"}
{"compound.string": "CN(C)CCCNc1nc(N/N=C/c2nccn2Cc2ccc(F)cc2)nc2ccccc12", "IC50": "0.63 µM"}
{"compound.string": "Oc1ccccc1/C=N/Nc1nc(NCCCN2CCOCC2)c2ccccc2n1", "IC50": "2.08 µM"}

---

- Tested on: NCI-H460
- assay: Cytotoxicity against human H460 cells after 72 hrs by MTT assay
- Assay type: functional, cell-based
- experimental.parameters: NCI-H460, 72 h
API: label(entry) gives True if the entry's IC50 is strictly smaller than 3000 nM; on equality or larger values it gives False.

{"compound.string": "CN(C)CCNc1nc(N/N=C/c2ccc(F)cc2)nc2ccccc12", "label": "False"}
{"compound.string": "CN(C)CCNc1nc(N/N=C/c2ccc(F)cc2Cl)nc2ccccc12", "label": "True"}
{"compound.string": "Cc1ccc(-c2cc(NCCN(C)C)c3ccccc3n2)cc1", "label": "False"}
{"compound.string": "CN1CCC(Nc2nc(N/N=C/c3nccn3Cc3ccccc3)nc3ccccc23)CC1", "label": "True"}
{"compound.string": "Fc1ccc(/C=N/Nc2nc(NCCCN3CCOCC3)c3ccccc3n2)cc1", "label": "False"}
{"compound.string": "Oc1cccc(/C=N/Nc2nc(NCCCN3CCOCC3)c3ccccc3n2)c1", "label": "False"}
{"compound.string": "CN(C)CCCNc1nc(N/N=C/c2ccc(F)cc2Cl)nc2ccccc12", "label": "True"}
{"compound.string": "Clc1cccc(Cn2ccnc2/C=N/Nc2nc(NCCCN3CCOCC3)c3ccccc3n2)c1Cl", "label": "True"}
{"compound.string": "CN1CCC(Nc2nc(N/N=C/c3ccc(F)cc3)nc3ccccc23)CC1", "label": "True"}
{"compound.string": "CN(C)CCNc1nc(N/N=C/c2ccc(Cl)cc2)nc2ccccc12", "label": "False"}
{"compound.string": "C(=N\\Nc1nc(NCCCN2CCOCC2)c2ccccc2n1)/c1nccn1Cc1ccccc1", "label": "False"}
{"compound.string": "Cc1ccc(Cn2ccnc2/C=N/Nc2nc(NCCCN3CCOCC3)c3ccccc3n2)cc1", "label": "False"}
{"compound.string": "CN1CCC(Nc2nc(N/N=C/c3ccc(Cl)cc3)nc3ccccc23)CC1", "label": "True"}
{"compound.string": "Cc1ccc(Cn2ccnc2/C=N/Nc2nc(NC3CCN(C)CC3)c3ccccc3n2)cc1", "label": "True"}
{"compound.string": "CN(C)CCCNc1nc(N/N=C/c2nccn2Cc2ccc(F)cc2)nc2ccccc12", "label": "True"}
{"compound.string": "Cc1ccc(Cn2ccnc2/C=N/Nc2nc(NCCCN(C)C)c3ccccc3n2)cc1", "label": "True"}
{"compound.string": "CN1CCC(Nc2nc(N/N=C/c3nccn3Cc3ccc(F)cc3)nc3ccccc23)CC1", "label": "True"}
{"compound.string": "CN(C)CCCNc1nc(N/N=C/c2ccc(F)cc2)nc2ccccc12", "label": "False"}
{"compound.string": "COc1ccc(OC)c(/C=N/Nc2nc(NC3CCN(C)CC3)c3ccccc3n2)c1", "label": "False"}
{"compound.string": "CN(C)CCNc1nc(N/N=C/c2nccn2Cc2ccc(F)cc2)nc2ccccc12", "label": "True"}
{"compound.string": "Fc1ccc(Cn2ccnc2/C=N/Nc2nc(NCCCN3CCOCC3)c3ccccc3n2)cc1", "label": "True"}
{"compound.string": "CN(C)CCCNc1nc(N/N=C/c2nccn2Cc2ccccc2)nc2ccccc12", "label": "False"}
{"compound.string": "CN(C)CCNc1nc(N/N=C/c2nccn2Cc2cccc(Cl)c2Cl)nc2ccccc12", "label": "True"}
{"compound.string": "CN1CCC(Nc2nc(N/N=C/c3nccn3Cc3cccc(Cl)c3Cl)nc3ccccc23)CC1", "label": "True"}
{"compound.string": "Cc1ccc(Cn2ccnc2/C=N/Nc2nc(NCCN(C)C)c3ccccc3n2)cc1", "label": "False"}
{"compound.string": "CN(C)CCCNc1nc(N/N=C/c2ccc(Cl)cc2)nc2ccccc12", "label": "True"}
{"compound.string": "CN(C)CCCNc1nc(N/N=C/c2nccn2Cc2cccc(Cl)c2Cl)nc2ccccc12", "label": "True"}
{"compound.string": "CN1CCC(Nc2nc(N/N=C/c3ccc(F)cc3Cl)nc3ccccc23)CC1", "label": "True"}
{"compound.string": "CN(C)CCNc1nc(N/N=C/c2nccn2Cc2ccccc2)nc2ccccc12", "label": "False"}
{"compound.string": "Clc1ccc(/C=N/Nc2nc(NCCCN3CCOCC3)c3ccccc3n2)cc1", "label": "False"}

---

- System: HT-29
- assay: Cytotoxicity against human HT-29 cells after 72 hrs by MTT assay
- Format: functional, cell-based
- experimental.parameters: HT-29, 72 h
pIC50: −log10 of the molar value.
Entries annotated with measured pIC50

{"compound.string": "CN1CCC(Nc2nc(N/N=C/c3nccn3Cc3ccccc3)nc3ccccc23)CC1", "system.name": "HT-29", "pIC50": 6.12}
{"compound.string": "CN(C)CCCNc1nc(N/N=C/c2nccn2Cc2cccc(Cl)c2Cl)nc2ccccc12", "system.name": "HT-29", "pIC50": 6.44}
{"compound.string": "CN(C)CCNc1nc(N/N=C/c2ccc(F)cc2Cl)nc2ccccc12", "system.name": "HT-29", "pIC50": 6.48}
{"compound.string": "CN(C)CCNc1nc(N/N=C/c2nccn2Cc2ccccc2)nc2ccccc12", "system.name": "HT-29", "pIC50": 5.58}
{"compound.string": "Clc1ccc(/C=N/Nc2nc(NCCCN3CCOCC3)c3ccccc3n2)cc1", "system.name": "HT-29", "pIC50": 6.21}
